Ref: a melting point compilation (Tetko et al.; mined from patent text by program, amines drawn as free bases though some values may be those of a salt)

Each record here notes measured melting point.

Example entries and their recorded answers appear below.
- CCOC(=O)C(CC)n1c(NC(=O)c2cccs2)nc2cc(C(=O)N(C)C3CCCCC3)ccc21 (stereo not given): 82 to 84 °C
- Nc1cc(Oc2ccc(NC(=O)Nc3ccc(-c4ccccn4)c(C(F)(F)F)c3)cc2)ncn1: 188 to 192 °C
- CCCCOC(=O)C1Oc2ccccc2Cc2ccccc2O1: 63 to 66 °C
- COc1ccc(-n2nc(C(C)C)cc2-c2ccc(OCCNS(C)(=O)=O)cc2)cn1: 96 to 97 °C

The recorded melting point for entry N#Cc1c(N2CCc3ccccc3CC2)nc(NCC(F)(F)F)n(CC(F)(F)F)c1=O equals > 200 °C

The recorded melting point for entry COc1cc(COc2nn(-c3ccccc3)cc2/C=C/C(N)=S)ccc1OCc1nc(-c2ccco2)oc1C equals 129 to 131 °C

The recorded melting point for entry CCOC(=O)c1cc([N+](=O)[O-])c2ccccn2c1=O equals 169 to 170 °C

The recorded melting point for entry CCCCC(=N)NC(=O)Nc1cccc(Cl)c1 equals 135 to 137 °C
